- experimental-system: HLA-B*58:01
- assay-comment: IEDB peptide-MHC binding, purified MHC/competitive/radioactivity; filed as Kd, often an IC50 or EC50 that approximates it; bounds were set here for any values at or beyond the usual limits of such assays
- run-conditions: source organism: Dengue virus 4 Philippines/H241/1956
Listing of recorded pKd by entry.
// pKd here means minus log10 of the molar concentration (mol/L)

Illustrative cases are given below, each with its answer.
residue-sequence	experimental-system	measured-value
GADTSEVHW	HLA-B*58:01	7.18
ESSKNQTWQI	HLA-B*58:01	5.80
ASGKLVTQW	HLA-B*58:01	7.80

# next sequence below
**Q:** Enter measured pKd, system HLA-B*58:01, for the sequence shown: `IAVASGLLW`
**A:** 9.18
